Measurement protocol: chemical genetic growth profiling, strain panel (AID 1159580);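 further: tested at 20 µM; growth read once vehicle control cultures reached saturation at 30 °C; 1 = growth at the plate median or of vehicle wells; lower values mean less growth of the strain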
Test settings: S. cerevisiae deletion strains, growth OD, locus YDR101C, strain arx1, stronger effect = lower value
About 2,000 (36%) of roughly 5,500 compounds were called active. Not shown: some 18% with an inconclusive outcome. Some of the results follow. *1 amine or outer side, *2 acyl side, *3 side chain or, on linkers, in order; H or OH if unused. Where a SMILES comes first, the peptide text is derived from it. Bridges are numbered along the chain shown (N, C = ends). [ ]: non-standard residue; d: D form. The star is where a group is joined. ξ: configuration not given here. ΔAla(E,3-NHCONH2) = NC(=O)N/C=C(/N)C(=O)O; X2 = NC1=NCCC(C(N[*:1])C(=O)[*:2])N1; ξβ3hOrn = NCCCC(N)CC(=O)*; Dap = NC[CH](N)C(=O)O
normalized growth by entry:

{"columns": ["Compound", "normalized growth"],
 "data": [
  ["CNC(Cc1c[nH]c2ccccc12)C(=O)O (centres undefined)", 1.04],
  ["CC(=O)OCC1=C(C(=O)O)N2C(=O)[C@@H](NC(=O)CCCC(N)C(=O)O)C2SC1 (some centres undefined)", 1],
  ["O=c1oc2c(O)c(O)cc3c(=O)oc4c(O)c(O)cc1c4c23", 0.749],
  ["COC1(C)CCC2OC2(C)CCC2C1CC2(C)C (centres undefined)", 0.993],
  ["CC1(C)S[C@@H]2[C@H](NC(=O)Cc3ccccc3)C(=O)N2[C@H]1C(=O)O", 1.02],
  ["NC(=O)N1c2ccccc2C=Cc2ccccc21", 1.01],
  ["NCCc1c[nH]c2ccccc12", 1.01],
  ["O=C(OC[C@H]1O[C@H](OC(=O)c2cc(O)c(O)c(OC(=O)c3cc(O)c(O)c(O)c3)c2)[C@H](OC(=O)c2cc(O)c(O)c(OC(=O)c3cc(O)c(O)c(O)c3)c2)[C@@H](OC(=O)c2cc(O)c(O)c(OC(=O)c3cc(O)c(O)c(O)c3)c2)[C@@H]1OC(=O)c1cc(O)c(O)c(OC(=O)c2cc(O)c(O)c(O)c2)c1)c1cc(O)c(O)c(OC(=O)c2cc(O)c(O)c(O)c2)c1", 0.0922],
  ["Cc1cc(=O)n(-c2ccccc2)n1C", 0.983],
  ["CC[C@H]1CN2CCc3cc(OC)c(OC)cc3C2C[C@@H]1CC1NCCc2cc(OC)c(OC)cc21 (some centres undefined)", 0.988],
  ["O=c1c(O)c(-c2ccc(O)c(O)c2)oc2cc(O)ccc12", 0.957],
  ["C=C(C)[C@H]1Cc2c(ccc3c2O[C@@H]2COc4cc(OC)c(OC)cc4[C@@H]2C3=O)O1", 1],
  ["NC(=O)NO", 0.996],
  ["CCC1(CC)C(=O)C=CNC1=O", 0.988],
  ["NCCCC(N)CC(=O)NCC1NC(=O)C(CO)NC(=O)C(N)CNC(=O)C(C2CCN=C(N)N2)NC(=O)/C(=C\\NC(N)=O)NC1=O (stereo not drawn) (H-[Dap]S[Dap](ξβ3hOrn)[ΔAla(E,3-NHCONH2)][X2]; lactam 1-C; configuration not given here)", 1.02],
  ["COc1cc2c(cc1OC)[C@@]13CCN4CC5=CCOC6CC(=O)N2C1[C@H]6[C@H]5C[C@H]43 (some centres undefined)", 0.997],
  ["COc1ccc(C(=O)c2ccc(O)cc2)c(O)c1O", 1],
  ["CN1CCN(CCCN2c3ccccc3Sc3ccc(C(F)(F)F)cc32)CC1", 0.0878],
  ["CCNc1nc(Cl)nc(NCC)n1", 0.994],
  ["COc1ccc2c(c1)[C@]13CCCC[C@H]1[C@H](C2)N(C)CC3", 0.999],
  ["CCOc1ccc(C(=O)c2ccc(O)c(O)c2O)cc1", 0.911],
  ["OC(c1cc(C(F)(F)F)nc2c(C(F)(F)F)cccc12)C1CCCCN1 (centres undefined)", 0.993],
  ["O=C(O)c1cc([N+](=O)[O-])ccc1NCCCc1ccccc1", 0.933],
  ["COc1cc2c(cc1OC)[C@@H]1C(=O)c3ccc4c(c3O[C@@H]1CO2)CC(C(C)C)O4 (some centres undefined)", 0.998],
  ["Cc1onc(-c2c(Cl)cccc2Cl)c1C(=O)N[C@@H]1C(=O)N2[C@@H]1SC(C)(C)[C@@H]2C(=O)O", 0.994],
  ["Cc1onc(-c2ccccc2)c1C(=O)NC1C(=O)N2[C@@H]1SC(C)(C)[C@@H]2C(=O)O (some centres undefined)", 1.01],
  ["COc1cccc(OC)c1C(=O)N[C@@H]1C(=O)N2[C@@H]1SC(C)(C)[C@@H]2C(=O)O", 0.997],
  ["Cc1onc(-c2ccccc2Cl)c1C(=O)N[C@@H]1C(=O)N2[C@@H]1SC(C)(C)[C@@H]2C(=O)O", 1.02],
  ["CC(=O)NO", 1]
]}

* * *

Measurement protocol: chemical genetic growth profiling, strain panel (AID 1159580);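 further: tested at 20 µM; growth read once vehicle control cultures reached saturation at 30 °C; 1 = growth at the plate median or of vehicle wells; lower values mean less growth of the strain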
Test settings: S. cerevisiae deletion strains, growth OD, locus YOR069W, strain VPS5
Among all 5,500 compounds or so, about 2,000 (36%) were called active. About 18% were inconclusive and are not listed. Cut-off read from the data, not from the text of the source: active = normalized growth mostly below about 0.91 (no sharp cut-off); inconclusive = no clear call, values can overlap the other calls; inactive = mostly above about 0.92. The list shows a part of the results.
Classes used: active, inactive

{"columns": ["Compound", "Label class"],
 "data": [
  ["COc1cc2c(cc1OC)-c1c(oc3c4c(ccc3c1=O)OC(C(C)C)C4)CO2 (stereo not given)", "inactive"],
  ["CC(NCCC(c1ccccc1)c1ccccc1)c1ccccc1 (stereo not given)", "inactive"],
  ["C[C@]12CCC(=O)C=C1CCC1C2C(=O)C[C@@]2(C)C1CC[C@]2(O)C(=O)CO (stereo not given in full)", "inactive"],
  ["C=C(C)[C@H]1Cc2c(ccc3c2O[C@@H]2COc4cc(OC)c(OC)cc4[C@@H]2C3=O)O1", "inactive"],
  ["CC(=O)OCC1=C(C(=O)O)N2C(=O)[C@@H](NC(=O)CCCC(N)C(=O)O)C2SC1 (stereo not given in full)", "inactive"],
  ["CC1(C)C=Cc2cc3ccc(=O)oc3cc2O1", "inactive"],
  ["CC[C@H]1OC(=O)[C@H](C)[C@@H](O[C@H]2C[C@@](C)(OC)[C@@H](O)[C@H](C)O2)[C@H](C)[C@@H](O[C@@H]2O[C@H](C)C[C@H](N(C)C)[C@H]2O)[C@](C)(O)C[C@@H](C)[C@@H]2N[C@@H](COCCOC)O[C@H]([C@H]2C)[C@]1(C)O", "inactive"],
  ["Cc1cc(=O)n(-c2ccccc2)n1C", "inactive"],
  ["CCc1cccc2c3c([nH]c12)C(CC)(CC(=O)O)OCC3 (stereo not given)", "inactive"],
  ["CC(=O)OCC(=O)[C@@]1(O)CCC2C3CCC4=CC(=O)CC[C@]4(C)C3[C@@H](O)C[C@@]21C (stereo not given in full)", "inactive"],
  ["C#C[C@]1(O)CCC2C3CCC4=Cc5oncc5C[C@]4(C)C3CC[C@@]21C (stereo not given in full)", "inactive"],
  ["CC(=O)[O][Hg][c]1ccccc1", "active"],
  ["COc1cc(/C=C/C=O)cc(OC)c1OC", "inactive"],
  ["C[C@]12CCC(=O)C=C1CCC1C2[C@@H](O)C[C@@]2(C)C1CC[C@]2(O)C(=O)COC(=O)CCC(=O)O (stereo not given in full)", "inactive"],
  ["C#CC1(O)CCC2C3CCC4=CC(=O)CCC4(C)C3CCC21C (stereo not given)", "inactive"],
  ["COc1cc2c(cc1OC)[C@@H]1C(=O)c3ccc4c(c3O[C@@H]1CO2)CC(C(C)C)O4 (stereo not given in full)", "inactive"],
  ["O=c1[nH]cnc2c1ncn2C1O[C@H](CO)[C@@H](O)[C@H]1O (stereo not given in full)", "inactive"],
  ["Cc1cc(C(C)(C)C)cc(C)c1CC1=NCCN1", "inactive"],
  ["CC1=NN(c2ccccc2)C(=O)C1", "inactive"],
  ["O=c1oc2c(O)c(O)cc3c(=O)oc4c(O)c(O)cc1c4c23", "active"]
]}

* * *

normalized growth by entry:
Measurement protocol: chemical genetic growth profiling, strain panel (AID 1159580);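 further: tested at 20 µM; growth read once vehicle control cultures reached saturation at 30 °C; 1 = growth at the plate median or of vehicle wells; lower values mean less growth of the strain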
Test settings: S. cerevisiae deletion strains, growth OD, locus YML124C, strain tub3, stronger effect = lower value
Among all 5,500 compounds or so, about 2,000 (36%) were called active. Inconclusive results (about 18%) are left out. Some of the results follow.

{"columns": ["Compound", "normalized growth"],
 "data": [
  ["CNC(Cc1c[nH]c2ccccc12)C(=O)O (configuration not stated)", 0.994],
  ["Cc1ccc(N(CC2=NCCN2)c2cccc(O)c2)cc1", 1.02],
  ["COc1ccc2c(c1)[C@]13CCCC[C@H]1[C@H](C2)N(C)CC3", 0.997],
  ["COc1cc2cc3c4cc(OC)c(OC)cc4cc[n+]3c(C)c2cc1OC", 1.01],
  ["CN1CCN(CCC=C2c3ccccc3Sc3ccc(S(=O)(=O)N(C)C)cc32)CC1", 0.988],
  ["OCCN1CCN(CCCN2c3ccccc3Sc3ccc(C(F)(F)F)cc32)CC1", 1],
  ["O=C(O)c1cc(=O)c2c(Cl)cc(Cl)cc2[nH]1", 1.01],
  ["Cc1cc(=O)n(-c2ccccc2)n1C", 0.984],
  ["CC(=O)O[C@@H]1CC[C@]2(C)C3CC[C@]4(C)C(=O)CCC4C3CC[C@H]2C1 (some centres not stated)", 1],
  ["COc1cnc(NS(=O)(=O)c2ccc(N)cc2)nc1", 0.979],
  ["CN1CCN(CCCN2c3ccccc3Sc3ccc(C(F)(F)F)cc32)CC1", 0.0843],
  ["CCNc1nc(Cl)nc(NCC)n1", 1.01]
]}
